# PROTOCOL_NOTES: melting temperature; fluorescence melt of hairpins on a sequencing array, two-state fit, raised by 9.35 °C to match UV melts
# RUN_CONDITIONS: sodium 0.088 M
Binary classification by Tm, with 50 °C as an inclusive lower bound for 1 (yes); all other cases are 0 (no).

INSERT INTO results (biosequence, label_class) VALUES
  ('CGCGTCGGAAACGAAGCG (((.(((....))).)))', '1 (yes)');

Ask | Check the entry GTACTGGGAAACCAGTAC (((((((....))))))) : does Tm equal or exceed 50 °C?
Reply | 1 (yes)

Ask | Can GTATCCGAAAGGATATAC ((((((....)))..))) be said to have Tm at or above 50 °C?
Reply | 0 (no)

Ask | Decide: is the reported value of Tm for GATCTAACGATAGATC ((((((....)))))) equal to or greater than 50 °C?
Reply | 0 (no)

Ask | API: above_or_equal(metric=Tm, cutoff=50 °C) for item GCTCCGCGAAAGCTCAGC (((..((....))..)))
Reply | 0 (no)

Ask | Does the reported Tm for GCAAGCGAAAGCTTTGC ((((((....))).))) fall at or above the 50 °C mark?
Reply | 1 (yes)

Ask | Form field: Tm at least 50 °C? Entry: GCTATCGAAAGATATAGC ((((((....)))..)))
Reply | 0 (no)

Ask | Is reported Tm greater than or equal to 50 °C here: GCTACGCGAAAGCCCAGC (((..((....))..)))
Reply | 0 (no)

Ask | Kindly determine if Tm recorded for GCTAGCGGAAACGCTGGC ((.((((....)))).)) is above or exactly 50 °C.
Reply | 1 (yes)

Ask | Would you say GTGAACGAAAGTTCTCAC ((((((....)))..))) shows Tm at minimum 50 °C?
Reply | 0 (no)

Ask | Form field: Tm at least 50 °C? Entry: GAAGGTGGAAACACCTTC (((((((....)))))))
Reply | 1 (yes)

Ask | Hello, I need to know if GGTCCGGGAAACCGGGCC ((.((((....)))).)) has measured Tm not below 50 °C. Thanks!
Reply | 1 (yes)

Ask | Confirm if Tm reported for the sequence GTATCTGGAAACAGACAC ((.((((....)))).)) is 50 °C or above.
Reply | 0 (no)

---

Catalogue of folding enthalpy readings, one per entry.
# PROTOCOL_NOTES: folding enthalpy; higher = less favourable; fluorescence melt of hairpins on a sequencing array, two-state fit
# RUN_CONDITIONS: sodium 0.088 M
Could you give me the number in kcal/mol? Just the number is fine.

Ask | // query folding enthalpy value for entry GCGATCGAAAGATTACGC ((((((....)))..)))
Reply | -30.4

Ask | Using the record for GGTAGCGAAAGCTTTACC ((((((....)))..))) , report its folding enthalpy.
Reply | -15.7

Ask | Return reported folding enthalpy; argument: CGAGACGGAAACGTTCG (((.(((....))))))
Reply | -26.3

Ask | May I ask what folding enthalpy has been recorded for AGCAAGAAATTGCT (((((....))))) ?
Reply | -16

Ask | I have this sequence here, GCATCTGGAAACAGGTGC (((.(((....))).))) , and I need its recorded folding enthalpy.
Reply | -40.5

Ask | What does the record list as folding enthalpy for CGCACGGAAACGTATGCG ((((((....)))..))) ?
Reply | -35.9

Ask | Consider the sequence shown here: GGGCTCGAAAGAGAGCCC ((((((....)))..))) What is its recorded folding enthalpy?
Reply | -35.3

Ask | I have this sequence here, GCGGGGGTCCGC ((((....)))) , and I need its recorded folding enthalpy.
Reply | -22.6

---

# PROTOCOL_NOTES: melting temperature; fluorescence melt of hairpins on a sequencing array, two-state fit, raised by 9.35 °C to match UV melts
# RUN_CONDITIONS: sodium 0.088 M
MEASURED_METRIC: Tm (°C)
Hi! Could you send only the number? It should be in °C, unit omitted.

INSERT INTO results (biosequence, measured_metric, unit_of_measure, experimental_value) VALUES
  ('GTTGGCGAAAGCCTGAAC ((((((....)))..)))', 'Tm', '°C', 30.9),
  ('GATCGGGAGCCGATC ((((((...))))))', 'Tm', '°C', 53.7),
  ('GAGCGTACGAAAGTACTC (((..(((....))))))', 'Tm', '°C', 27);

Ask | Any idea what Tm was measured for GATCAGGCTGCTGATC ((((((....)))))) ?
Reply | 50.4

Ask | Need Tm, item GCATGGGGAAACCTGTGC (((..((....))..)))
Reply | 44.3

Ask | Need Tm, item GAATTACGAAAGTACTTC (((.(((....))).)))
Reply | 32.5

Ask | Return reported Tm; argument: GCTTCAGGAAACTGAGGC ((.((((....)))).))
Reply | 47.7

Ask | Tm for GCCAGGCGAAAGCTTTGC ((.(.((....)).).)) ?
Reply | 33.4

Ask | Dear colleague, I am looking for the recorded Tm of the following sequence: GGACCCGAAAGGGTTCC ((((((....))).)))
Reply | 59.7

Ask | # get_value(readout='Tm', item= GCACTGCGAAAGCCGCGC ((.(.((....)).).)) )
Reply | 45.4

Ask | Please report the recorded Tm for GATCGGGCATCCGATC ((((((....)))))) .
Reply | 63.3

Ask | # input sequence: GATCAGGTGTCTGATC ((((((....)))))) ; wanted: its Tm
Reply | 50.9

Ask | # query: Tm of entry GATCATAACAATGATC ((((((....))))))
Reply | 47

Ask | Value lookup for Tm; key = GTCCGCGAAAGCGAGAC ((((((....))).)))
Reply | 59.2

Ask | Would you mind telling me what Tm value was observed for GATCCCAACGGGGATC ((((((....)))))) ?
Reply | 59.4

Ask | Item under review: GCTGTCGAAAGACTTAGC ((((((....)))..))) . Reported Tm?
Reply | 43

Ask | I have this sequence here, GCGTGCTGACGC ((((....)))) , and I need its recorded Tm.
Reply | 58.2

Ask | Please give the measured Tm for this sequence: GCCACCGAAAGGTTGGGC ((((((....)))..)))
Reply | 52.6

Ask | Returns the measured Tm for the input sequence. Input: GATATAACGAAAGTTATC (((..(((....))))))
Reply | 30.6

Ask | Requested read-out: Tm. Entry: GCTTTCGGAAACGAAAGC (((((((....)))))))
Reply | 68

Ask | Report Tm for GCAGAGCCGAAAGGCTGC (((..(((....)))))) please.
Reply | 52.9

Ask | Data request, read-out Tm, for GATCATCCCCATGATC ((((((....))))))
Reply | 46.2

Ask | Form field: reported Tm of GTTGACGAAAGTCCAAC ((((((....))).)))
Reply | 40.9

Ask | Any idea what Tm was measured for GTGTTTGAAAAAACAC ((((((....)))))) ?
Reply | 52.9

---

# PROTOCOL_NOTES: folding enthalpy; higher = less favourable; fluorescence melt of hairpins on a sequencing array, two-state fit
# RUN_CONDITIONS: sodium 0.088 M
Decision: folding enthalpy compared against -30 kcal/mol; not below it gives MET, below it gives NOT MET.

Previously resolved entries follow.
INSERT INTO results (biosequence, label_class) VALUES
  ('GACTGGGGAAACCTGGTC (((..((....))..)))', 'NOT MET'),
  ('GATCTGAGGCAGATC ((((((...))))))', 'NOT MET'),
  ('GTGCAAGGAAACTTGCGC (.(((((....))))).)', 'MET'),
  ('GGTAGCCGAAAGGCCACC (((.(((....))).)))', 'MET');

Read the next record carefully.
Ask | Does GATCTGGGAAACTGGATC ((((..(....)..)))) have a reported folding enthalpy of at least -30 kcal/mol?
Reply | MET

---

# PROTOCOL_NOTES: melting temperature; fluorescence melt of hairpins on a sequencing array, two-state fit, raised by 9.35 °C to match UV melts
# RUN_CONDITIONS: sodium 0.088 M
sequences and their reported Tm
Unit °C implied. Number only.

// known answers, use as guide
INSERT INTO measurements (biosequence, experimental_value) VALUES
  ('GGCCTTTCGAAAGAAGCC (((..(((....))))))', 37.2),
  ('GCGTGCGACGC ((((...))))', 61),
  ('GGCGGCGAAAGCCCAGCC ((((((....)))..)))', 57.8),
  ('CGTCCGGAAACGGCCACG ((((((....)))..)))', 33.1),
  ('GACCACGAAAGTGCGTC ((((((....))).)))', 53.7);

Please examine the following record next.
Ask | Fill in: Tm of GGCACTCGAAAGAGAGCC (((.(((....))).))) is ___
Reply | 59

Origin of the recorded values: the array DNA melting data of Ke et al. (doi:10.1101/2024.01.08.574731)
